Values from patent US20160362487A1

# System tested: T1, cynomolgus monkey IL-33 expressed with a C-terminal hexahistidine tag (cynomolgus monkey)
# T1 construct: also called MfIL-33-6His; Mf-IL-33-6His
# T1 chain: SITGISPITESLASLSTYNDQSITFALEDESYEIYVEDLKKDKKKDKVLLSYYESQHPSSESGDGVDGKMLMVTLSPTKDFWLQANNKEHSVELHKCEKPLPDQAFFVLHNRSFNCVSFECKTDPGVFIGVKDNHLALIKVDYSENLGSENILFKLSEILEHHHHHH
# Method: competition ELISA, 150 pM MfIL-33-6His on coated hST2-hFc
// values below are reported IC50
Express it in nM; write the number only.

Query string: Given the binder H4H9665P (antibody, human IgG4, V domains shown, Human IgG4 Fc (H4H)) VH: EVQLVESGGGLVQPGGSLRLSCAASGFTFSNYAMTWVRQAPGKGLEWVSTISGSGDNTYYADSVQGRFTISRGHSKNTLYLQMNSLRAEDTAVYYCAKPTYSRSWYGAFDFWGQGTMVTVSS VL: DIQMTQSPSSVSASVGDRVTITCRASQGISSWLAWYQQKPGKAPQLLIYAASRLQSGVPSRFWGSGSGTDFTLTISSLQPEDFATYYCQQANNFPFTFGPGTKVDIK , what is its reported IC50?
Result string: 0.42

Query string: Would you mind telling me what IC50 value was observed for H4H9666P (antibody, human IgG4, V domains shown, Human IgG4 Fc (H4H)) VH: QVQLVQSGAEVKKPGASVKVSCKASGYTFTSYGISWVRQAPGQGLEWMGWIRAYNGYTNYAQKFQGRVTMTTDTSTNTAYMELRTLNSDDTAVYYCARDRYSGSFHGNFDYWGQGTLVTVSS VL: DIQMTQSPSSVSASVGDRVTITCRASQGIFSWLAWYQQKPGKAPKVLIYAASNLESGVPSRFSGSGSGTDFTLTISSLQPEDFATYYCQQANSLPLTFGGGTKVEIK ?
Result string: 13

Query string: IC50 for H4H9660P (antibody, human IgG4, V domains shown, Human IgG4 Fc (H4H)) VH: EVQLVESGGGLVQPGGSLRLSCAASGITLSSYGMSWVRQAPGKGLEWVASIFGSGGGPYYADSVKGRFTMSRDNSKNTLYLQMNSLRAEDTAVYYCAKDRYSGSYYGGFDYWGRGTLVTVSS VL: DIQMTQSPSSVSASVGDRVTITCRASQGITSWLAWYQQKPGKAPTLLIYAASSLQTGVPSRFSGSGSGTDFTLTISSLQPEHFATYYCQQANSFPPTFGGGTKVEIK ?
Result string: 4.2
